Assign % activity to each entry below.
target: PAK2 (h) (Homo sapiens); construct: purchased Millipore; assay: Kinase Profiling Assay; format: biochemical; details: 100 μM
Sequence (Q13177 whole entry): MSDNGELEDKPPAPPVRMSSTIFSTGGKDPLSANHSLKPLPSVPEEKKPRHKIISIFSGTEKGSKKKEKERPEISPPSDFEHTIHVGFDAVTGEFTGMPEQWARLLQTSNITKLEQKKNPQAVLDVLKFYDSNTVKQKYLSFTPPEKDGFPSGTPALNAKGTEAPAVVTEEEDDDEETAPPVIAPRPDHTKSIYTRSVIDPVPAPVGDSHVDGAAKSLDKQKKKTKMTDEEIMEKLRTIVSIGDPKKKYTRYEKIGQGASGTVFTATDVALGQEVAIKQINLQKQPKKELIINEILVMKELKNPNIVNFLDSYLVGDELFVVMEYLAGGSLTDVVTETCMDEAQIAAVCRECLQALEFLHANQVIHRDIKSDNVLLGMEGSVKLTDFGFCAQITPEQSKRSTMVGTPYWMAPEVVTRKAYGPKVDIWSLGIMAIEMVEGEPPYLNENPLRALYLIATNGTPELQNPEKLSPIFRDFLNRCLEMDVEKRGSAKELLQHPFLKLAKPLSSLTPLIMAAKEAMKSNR
# output: bare number, implied unit %

**Q:** Need % activity, item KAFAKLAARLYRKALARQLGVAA [MMI-0400]
**A:** 59

**Q:** Need % activity, item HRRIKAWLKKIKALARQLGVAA (Mammalian) [MMI-0500]
**A:** 44

**Q:** Need % activity, item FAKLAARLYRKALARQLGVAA [MMI-0300]
**A:** 65

**Q:** Need % activity, item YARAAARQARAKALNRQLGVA (Mammalian) [MMI-0200]
**A:** 69

Entry source: patent US10500249B2
